Molecular target: UniProt P77488
Assay: DXP synthase inhibition, continuous spectrophotometric IspC-coupled assay
Assay type: biochemical, E. coli
Conditions: evaluated in the presence of ascorbic acid (2.0 mM)
endpoint_name: Ki

INSERT INTO results (molecule_smiles, result) VALUES
  ('CONCc1cc(O)c(O)cc1O.Cl', '> 75 µM');

====

Biological target: DXP synthase (Escherichia coli, UniProt P77488)
Sequence (P77488 whole entry): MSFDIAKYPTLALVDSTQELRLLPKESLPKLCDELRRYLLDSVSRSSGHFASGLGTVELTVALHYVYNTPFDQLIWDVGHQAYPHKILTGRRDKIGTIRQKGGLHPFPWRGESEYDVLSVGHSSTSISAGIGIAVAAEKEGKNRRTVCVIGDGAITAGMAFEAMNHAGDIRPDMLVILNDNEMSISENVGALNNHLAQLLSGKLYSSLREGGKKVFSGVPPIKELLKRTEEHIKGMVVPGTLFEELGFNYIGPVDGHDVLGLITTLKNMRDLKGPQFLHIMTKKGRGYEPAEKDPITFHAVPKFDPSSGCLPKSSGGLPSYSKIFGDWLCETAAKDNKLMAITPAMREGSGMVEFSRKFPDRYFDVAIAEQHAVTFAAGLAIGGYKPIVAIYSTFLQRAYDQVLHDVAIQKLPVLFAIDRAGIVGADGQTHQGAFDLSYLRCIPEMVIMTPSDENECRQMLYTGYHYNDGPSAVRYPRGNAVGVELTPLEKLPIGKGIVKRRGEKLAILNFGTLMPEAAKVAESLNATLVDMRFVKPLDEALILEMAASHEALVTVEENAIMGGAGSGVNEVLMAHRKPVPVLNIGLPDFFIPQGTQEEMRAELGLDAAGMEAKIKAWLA
Experiment: DXP synthase inhibition, continuous spectrophotometric IspC-coupled assay
Type: biochemical, E. coli
Details: model discrimination analysis (AIC)
endpoint_name: mode of inhibition with respect to pyruvate

INSERT INTO measurements (compound, result) VALUES
  ('Oc1cc(O)c(/C=N/OCc2ccccc2)cc1O', 'noncompetitive'),
  ('O=C([O-])/C=N/OCCO/N=C/c1cc(O)c(O)cc1O.[Na+]', 'noncompetitive'),
  ('Oc1cc(O)c(/C=N/OCCO/N=C/c2cc(O)c(O)cc2O)cc1O', 'uncompetitive'),
  ('CO/N=C/c1cc(O)c(O)cc1O', 'noncompetitive'),
  ('O/N=C/c1cc(O)c(O)cc1O [Compound 7, (E)-2,4,5-Trihydroxybenzaldehyde oxime]', 'uncompetitive');
